Test system: NCI-H322M lung
Assay: NCI-60 one-dose screen, 48 h (100 = growth as untreated, 0 = no growth, -100 = all killed)
Conditions: 10 µM unless noted
About 83,000 compounds went through this panel and 20% of them were active in at least one assay; those are over-represented in the sample as a whole.
Value Kind: growth (%)
Numeric only. Scale: %

Return the recorded growth value; entry: COC(=O)[C@@H](C)C[C@H](Cc1cn(C)c2ccccc12)NC(=O)c1csc([C@@H](C[C@H](C(C)C)N(C)C(=O)[C@@H](NC(=O)[C@H]2CCCCN2C)C(C)C)OC(C)=O)n1
37.8

Return the recorded growth value; entry: CCCC(C)C1(CC)C(=O)NC(=O)N(C)C1=O (stereo not given)
100

Return the recorded growth value; entry: O=C1C2CCC1C(N1CCCC1)CC2 (stereo not given)
92.5

Return the recorded growth value; entry: CC(=O)Nc1ccc(NC(=O)c2ccc([As](O)O)cc2)cc1
118

Return the recorded growth value; entry: O=C1NC(=O)C(=Cc2ccc(OCCCCC3CCCCC3)c(Cl)c2)C(=O)N1
105
